Reported TGI values for a set of compounds
test system: SK-MEL-5 melanoma; test: NCI tumour cell line growth inhibition, 48 h

Illustrative cases are given below, each with its answer.
{"compound": "CC(=O)OC1COC(Oc2c(C)c3c4c(c2O)[C@@H](C)CC[C@@H]4[C@@H](C)C[C@H]3C=C(C)C)C(O)C1OC(C)=O (stereo partly specified)", "TGI": "52.7 µM"}
{"compound": "O=C1C2SC34c5c2c2ccccc2n5CCC3CCCN14 (stereo unspecified)", "TGI": "> 100 µM"}
{"compound": "CC1(C)CC(=O)C(C=NC(=S)c2ccccc2)=C(O)C1", "TGI": "> 100 µM"}
{"compound": "Cc1c(C)c2c(c(N)c1C#N)C(=O)N(NC(=O)c1ccccc1)C2=O", "TGI": "> 100 µM"}
{"compound": "OC(CC1SCCCS1)c1ccccc1 (stereo unspecified)", "TGI": "> 100 µM"}

Consider the record given below.
Task item: What value of TGI has been reported for the following compound? `O=C(Nc1ccc2ncccc2c1)Nc1ccc2ncccc2c1`
Reply: > 100 µM

---

tested on: COLO 205 colon; assay: NCI tumour cell line growth inhibition, 48 h
property: log10 of TGI (log10 of the value in µM)
Hi team, quick reminder: these entries are log10 of TGI (µM).

Illustrative cases are given below, each with its answer.
{"compound": "S=C(Nc1ccc(Cl)cc1)Nc1ccc(-c2nc3ccccc3s2)cc1", "log10 of TGI": 1.73}
{"compound": "CC(=O)Nc1ccc(S(=O)(=O)N2C(=O)CCC2C(=O)Nc2ccc(Br)cc2)cc1 (stereo not given)", "log10 of TGI": 1.07}
{"compound": "Cc1ccc(SC2c3ccc(C)cc3Oc3nc(N)c(C#N)c(N)c32)cc1 (stereo not given)", "log10 of TGI": 0.52}

Task item: What value of log10 of TGI has been reported for the following compound? `Cc1ccc(S(=O)(=O)c2[nH]cc(/C(=C\C3CCCCC3)[N+](=O)[O-])c2C2CCCCC2)cc1`
Reply: -0.22

Task item: What value of log10 of TGI has been reported for the following compound? `Cc1[nH]c(=O)nc2nc3ccc(Cl)cc3c(NCCNCCO)c12`
Reply: 1.33

Task item: What value of log10 of TGI has been reported for the following compound? `O=c1cc[nH]c(=O)[nH]1`
Reply: 2.58

Task item: What value of log10 of TGI has been reported for the following compound? `CC[As](CC)SC[C@H](C)C(=O)N1CCC[C@H]1C(=O)O`
Reply: -0.85

---

Reported TGI values for a set of molecules
system: K-562 leukemia; assay: NCI tumour cell line growth inhibition, 48 h

Task item: Notebook: pull reported TGI for K-562 leukemia, entry `Cc1cc(C)c2c(n1)sc1c(Nc3ccc(Cl)cc3)ncnc12`
Reply: > 100 µM

Task item: Notebook: pull reported TGI for K-562 leukemia, entry `O=c1/c(=C/c2ccccc2[N+](=O)[O-])sc2nnc(-c3ccco3)n12`
Reply: > 100 µM

Task item: Notebook: pull reported TGI for K-562 leukemia, entry `COc1cc(OC)c2nc(C)c(CCCl)c(Cl)c2c1`
Reply: > 100 µM

Task item: Notebook: pull reported TGI for K-562 leukemia, entry `COc1cc(OC)cc(Oc2nc3ccccc3nc2C(F)(F)F)c1`
Reply: > 100 µM

Task item: Notebook: pull reported TGI for K-562 leukemia, entry `Cn1cc(C2=C(c3ccc(N)cc3)C(=O)NC2=O)c2ccccc21`
Reply: > 25 µM
